Target: ALK6 (Homo sapiens)
Sequence (O00238 14-502): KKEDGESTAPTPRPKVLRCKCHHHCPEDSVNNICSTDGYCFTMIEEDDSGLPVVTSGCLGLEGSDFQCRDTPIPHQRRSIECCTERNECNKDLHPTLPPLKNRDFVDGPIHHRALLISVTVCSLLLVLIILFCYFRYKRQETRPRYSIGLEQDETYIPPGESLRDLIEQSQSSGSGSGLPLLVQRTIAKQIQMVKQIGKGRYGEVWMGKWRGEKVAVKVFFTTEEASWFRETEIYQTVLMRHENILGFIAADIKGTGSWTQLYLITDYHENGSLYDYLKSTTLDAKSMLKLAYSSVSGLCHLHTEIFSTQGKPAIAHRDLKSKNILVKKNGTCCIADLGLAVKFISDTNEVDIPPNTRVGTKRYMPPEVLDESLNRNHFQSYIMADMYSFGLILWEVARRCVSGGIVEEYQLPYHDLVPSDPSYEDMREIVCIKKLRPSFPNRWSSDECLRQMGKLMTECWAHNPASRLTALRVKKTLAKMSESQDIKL
pIC50: −log10 of the molar value.
quantity: pIC50

What reported pIC50 corresponds to NC(N)=NCCC[C@H](NCN1CCN(C(=O)c2cc(Cc3n[nH]c(=O)c4ccccc34)ccc2F)CC1)C(=O)O on ALK6 (Homo sapiens)?
< 5.00

----------
Target: MINK (Homo sapiens)
Sequence (Q8N4C8 whole entry): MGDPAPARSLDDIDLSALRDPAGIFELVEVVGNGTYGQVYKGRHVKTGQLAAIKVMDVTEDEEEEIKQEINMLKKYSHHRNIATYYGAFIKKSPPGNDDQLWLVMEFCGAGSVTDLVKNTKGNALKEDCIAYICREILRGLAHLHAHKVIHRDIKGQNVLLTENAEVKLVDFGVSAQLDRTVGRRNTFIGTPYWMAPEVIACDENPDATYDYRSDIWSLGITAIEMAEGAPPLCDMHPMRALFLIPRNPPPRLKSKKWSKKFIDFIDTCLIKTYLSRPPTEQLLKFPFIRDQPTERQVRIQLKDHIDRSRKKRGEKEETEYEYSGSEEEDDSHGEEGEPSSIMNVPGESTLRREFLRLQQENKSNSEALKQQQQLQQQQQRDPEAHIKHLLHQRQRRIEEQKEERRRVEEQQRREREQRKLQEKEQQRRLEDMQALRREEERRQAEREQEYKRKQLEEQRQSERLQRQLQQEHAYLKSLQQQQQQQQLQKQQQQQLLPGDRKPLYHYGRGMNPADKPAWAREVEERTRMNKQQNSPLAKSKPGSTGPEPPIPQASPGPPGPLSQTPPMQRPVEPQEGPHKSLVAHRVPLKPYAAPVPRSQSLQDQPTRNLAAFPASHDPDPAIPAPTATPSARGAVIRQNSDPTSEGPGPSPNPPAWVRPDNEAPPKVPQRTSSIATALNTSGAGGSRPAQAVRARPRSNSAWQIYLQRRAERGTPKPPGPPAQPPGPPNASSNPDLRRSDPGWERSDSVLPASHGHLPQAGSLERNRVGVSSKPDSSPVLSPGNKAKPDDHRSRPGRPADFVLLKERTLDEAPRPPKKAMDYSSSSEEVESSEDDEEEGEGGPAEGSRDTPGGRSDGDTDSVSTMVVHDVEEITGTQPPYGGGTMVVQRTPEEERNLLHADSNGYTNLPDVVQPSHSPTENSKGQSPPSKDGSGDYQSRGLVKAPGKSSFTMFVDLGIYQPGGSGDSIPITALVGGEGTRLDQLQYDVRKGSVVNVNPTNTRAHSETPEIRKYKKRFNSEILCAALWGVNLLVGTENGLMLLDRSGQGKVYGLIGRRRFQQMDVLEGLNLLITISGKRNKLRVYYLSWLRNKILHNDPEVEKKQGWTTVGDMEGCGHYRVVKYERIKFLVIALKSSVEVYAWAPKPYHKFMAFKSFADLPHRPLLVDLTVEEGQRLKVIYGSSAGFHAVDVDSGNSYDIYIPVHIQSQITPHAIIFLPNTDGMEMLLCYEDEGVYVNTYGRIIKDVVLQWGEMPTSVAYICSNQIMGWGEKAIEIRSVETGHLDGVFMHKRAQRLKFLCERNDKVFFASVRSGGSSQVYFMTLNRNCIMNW
quantity: IC50

Give the reported IC50 for NC(N)=NCCC[C@H](NCN1CCN(C(=O)c2cc(Cc3n[nH]c(=O)c4ccccc34)ccc2F)CC1)C(=O)O (system: MINK (Homo sapiens)).
> 10 µM

----------
Biological target: EPHB1 (Homo sapiens)
Sequence (P54762 18-984): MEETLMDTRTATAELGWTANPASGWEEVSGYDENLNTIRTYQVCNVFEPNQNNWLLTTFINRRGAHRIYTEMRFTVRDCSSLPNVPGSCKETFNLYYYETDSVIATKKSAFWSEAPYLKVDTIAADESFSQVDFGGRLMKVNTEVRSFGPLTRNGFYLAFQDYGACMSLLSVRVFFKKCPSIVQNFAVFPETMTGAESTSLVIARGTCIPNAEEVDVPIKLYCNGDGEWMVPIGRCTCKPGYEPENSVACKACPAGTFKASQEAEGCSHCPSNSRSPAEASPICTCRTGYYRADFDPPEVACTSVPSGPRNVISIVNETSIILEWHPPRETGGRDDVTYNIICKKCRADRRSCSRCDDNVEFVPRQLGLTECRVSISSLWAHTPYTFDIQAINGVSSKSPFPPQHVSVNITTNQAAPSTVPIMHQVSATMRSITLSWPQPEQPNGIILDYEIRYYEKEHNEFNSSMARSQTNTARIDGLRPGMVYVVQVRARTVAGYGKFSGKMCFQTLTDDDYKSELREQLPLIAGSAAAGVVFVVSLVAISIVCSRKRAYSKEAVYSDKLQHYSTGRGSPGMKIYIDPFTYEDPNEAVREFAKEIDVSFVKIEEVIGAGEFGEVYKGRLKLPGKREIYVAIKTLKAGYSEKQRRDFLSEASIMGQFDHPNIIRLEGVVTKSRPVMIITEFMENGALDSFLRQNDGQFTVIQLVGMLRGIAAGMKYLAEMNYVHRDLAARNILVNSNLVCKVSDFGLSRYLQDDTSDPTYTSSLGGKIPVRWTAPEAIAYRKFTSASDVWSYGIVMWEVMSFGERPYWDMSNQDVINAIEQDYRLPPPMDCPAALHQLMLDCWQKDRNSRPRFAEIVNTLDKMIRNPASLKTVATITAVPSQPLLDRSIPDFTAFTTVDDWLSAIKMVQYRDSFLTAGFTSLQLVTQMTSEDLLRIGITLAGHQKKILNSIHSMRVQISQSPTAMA
pIC50: −log10 of the molar value.
quantity: pIC50

# query: pIC50 of entry NC(N)=NCCC[C@H](NCN1CCN(C(=O)c2cc(Cc3n[nH]c(=O)c4ccccc34)ccc2F)CC1)C(=O)O [PPNR-4]
< 5.00

----------
Molecular target: UniProt Q8TD19
Sequence (Q8TD19 1-979): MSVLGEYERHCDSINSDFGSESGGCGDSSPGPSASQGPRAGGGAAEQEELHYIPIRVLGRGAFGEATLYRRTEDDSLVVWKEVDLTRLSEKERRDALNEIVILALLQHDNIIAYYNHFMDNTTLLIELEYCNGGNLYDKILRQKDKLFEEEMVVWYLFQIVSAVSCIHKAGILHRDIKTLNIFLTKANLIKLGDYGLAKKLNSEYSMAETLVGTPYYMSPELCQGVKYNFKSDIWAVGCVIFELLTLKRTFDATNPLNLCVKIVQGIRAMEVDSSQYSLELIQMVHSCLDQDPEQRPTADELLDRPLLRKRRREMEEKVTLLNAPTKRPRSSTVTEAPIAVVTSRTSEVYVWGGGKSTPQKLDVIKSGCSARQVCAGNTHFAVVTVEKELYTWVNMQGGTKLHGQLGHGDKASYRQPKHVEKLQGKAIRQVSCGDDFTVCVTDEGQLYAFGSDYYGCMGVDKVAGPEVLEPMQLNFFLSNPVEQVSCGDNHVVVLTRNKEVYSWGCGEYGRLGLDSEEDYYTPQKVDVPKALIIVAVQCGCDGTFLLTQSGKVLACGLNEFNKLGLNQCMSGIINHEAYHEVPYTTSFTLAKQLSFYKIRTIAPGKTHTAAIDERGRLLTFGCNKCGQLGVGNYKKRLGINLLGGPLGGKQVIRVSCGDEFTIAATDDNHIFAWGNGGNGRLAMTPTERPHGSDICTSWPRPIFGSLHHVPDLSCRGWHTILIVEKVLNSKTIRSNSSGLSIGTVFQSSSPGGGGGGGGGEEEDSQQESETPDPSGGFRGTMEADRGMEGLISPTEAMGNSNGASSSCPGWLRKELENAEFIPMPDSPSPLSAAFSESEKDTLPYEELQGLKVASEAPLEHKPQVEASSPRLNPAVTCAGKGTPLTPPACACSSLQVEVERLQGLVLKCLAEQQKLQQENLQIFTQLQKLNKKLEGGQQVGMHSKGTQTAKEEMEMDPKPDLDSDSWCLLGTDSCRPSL
pIC50: −log10 of the molar value.
quantity: pIC50

What pIC50 value was documented for this compound, NC(N)=NCCC[C@H](NCN1CCN(C(=O)c2cc(Cc3n[nH]c(=O)c4ccccc34)ccc2F)CC1)C(=O)O ?
< 5.00
